System: KM12 colon
Protocol description: NCI-60 one-dose screen, 48 h
Condition context: 10 µM unless noted
Compounds without any hit were thinned out: in the full panel of roughly 83,000, 20% have a hit. The source made the active and inactive calls. The calls were made as follows: active = growth percent below 10; inactive = the rest.
Select the matching outcome among 1 = active, 0 = inactive

Known results for compounds:
{"columns": ["Entry smiles", "Measurement target", "Answer label"],
 "data": [
  ["CC(=O)c1cc(C(=O)N2c3ccccc3Sc3ccccc32)n2c1ccc1ccccc12", "KM12 colon", 0],
  ["C#C[C@]1(O)CC[C@H]2[C@@H]3CC=C4c5sc(Nc6cc(Cl)ccc6OC)nc5CC[C@]4(C)[C@H]3CC[C@@]21C", "KM12 colon", 0],
  ["NC1CC2(CCN(c3cnc(C(=O)Nc4cc(F)cc5cccnc45)cn3)CC2)C1", "KM12 colon", 0],
  ["O=C(CSc1nnc(-c2cccs2)n1-c1ccccc1)Nc1ccccc1F", "KM12 colon", 0],
  ["CC1=C(SCC(=O)OCCCCCC(C)C)C(=O)c2ccccc2C1=O", "KM12 colon", 0]
]}

Exercise: What call does the record list for O=C(Nc1ccc(N2CCOCC2)cc1)Nc1ccc2c(ccn2C(=O)c2cccc(F)c2)c1 ?
Key: 0

Exercise: Which outcome was entered for the compound O=C(COc1ccc(/C=C2\C(=O)Nc3ccc(Cl)cc32)cc1)Nc1ccc(Cl)cc1 in this test?
Key: 0

Exercise: Recorded test outcome, item CCCN1C=C/C(=C\C(=O)n2ccc3ccccc32)c2ccccc21
Key: 0

Exercise: Kindly provide the recorded test outcome for the following compound: Cc1ccc(CSC2=C(Cl)CN(c3ccc(Cl)cc3)C2=O)cc1
Key: 0

Exercise: Which outcome was entered for the compound O=C(CSc1nc2ccccc2c(=O)n1-c1ccc(Cl)c(Cl)c1)Nc1ccc(S(=O)(=O)Nc2ccc(Cl)nn2)cc1 in this test?
Key: 0

---

Can you tell me growth for the items I'm about to list?
Tested on: ACHN renal
Protocol description: NCI-60 one-dose screen, 48 h (100 = growth as untreated, 0 = no growth, -100 = all killed)
Condition context: 10 µM unless noted
This is part of a sample that, as a whole, favours compounds with a hit. Of some 83,000 tested, about 20% had one in any assay.
Give bare numbers, in %.

The following compounds have reported results that may help.
{"columns": ["Entry smiles", "Readout unit", "Val"],
 "data": [
  ["CC(C)NC(=O)c1cc(-c2ccc(NC(=O)Nc3ccc(F)c(C(F)(F)F)c3)cc2)nc2cccnc12", "%", 90.5],
  ["Cc1ccc(Nc2nc(SC(C)C)nc(-c3ccccc3)c2C#N)cc1", "%", 88.4],
  ["CCOC(=O)c1ccc(NC2=CC(=O)C(C)=C(C)C2=O)cc1", "%", 89.9]
]}

Now look at this entry.
Recorded growth (compound NS(=O)(=O)c1cccc(Nc2nc(SCC(=O)c3ccc(Cl)cc3)nc3c2CCC3)c1 ): 92.4

---

Tested on: T-47D breast
Protocol description: NCI-60 one-dose screen, 48 h (100 = growth as untreated, 0 = no growth, -100 = all killed)
Condition context: 10 µM unless noted
Method: Growth inhibition of the T-47D human tumor cell line is measured as a screen for anti-cancer activity. Cells are grown in 96 well plates and exposed to the test compound for 48 hours. Compounds are tested at a single concentration, which is 10^-5 M for most compounds. The reported endpoint is percent growth (GI% or GIPRCNT), where numbers from 0 - 100% represent growth inhibition, and numbers from -100% - 0 represent cell death. For example, a value of 40 represents 60% growth inhibition. […]
This is part of a sample that, as a whole, favours compounds with a hit. Of some 83,000 tested, about 20% had one in any assay.
Endpoint label: growth (%)
Numbers only, in %.

{"columns": ["Compound", "growth / %"],
 "data": [
  ["C#C[C@]1(O)CC[C@H]2[C@@H]3CC=C4c5sc(Nc6cccc(F)c6)nc5CC[C@]4(C)[C@H]3CC[C@@]21C", 29.9],
  ["C#CCN(C)CCCOc1ccc(NCc2ccc(C(=O)NO)cc2)cc1Cl", 0.446],
  ["O=C(/C=C/c1ccc(F)cc1)Nc1cccc2cccnc12", 32.8],
  ["COc1cc(C(C)=C(c2ccc(OCCN(C)C)cc2)c2ccc(OCCN(C)C)cc2)ccc1F", 93.4],
  ["COC(=O)CNC(=O)c1cccc(-c2cc(=O)c3c(OC)c(OC)c(OC)cc3o2)c1", 107]
]}

Batch request: growth for each of the following compounds.
1. CCCCCCNC(=O)Oc1ccc(/C(=C(/C)c2ccc(Cl)cc2)c2ccc(OCCN3CCCCCC3)cc2)cc1
2. Cc1ccc2c(n1)C(=O)C(Cl)=C(Nc1ccc(C#N)cc1)C2=O
3. CNCCN(C)c1ccc(Nc2cc(NC3CC3)n3ncc(C#N)c3n2)cc1NC(C)=O
4. N#Cc1c(-c2cccs2)cc(-c2cnccn2)nc1SCC(=O)N/N=C/c1ccncc1

Key:
[48.2, 7.98, -16.2, 101]

I need growth for every entry listed below, if you could help.
1. O=C1c2ccccc2C23C(=C(c4cncnc4)c4ccccc42)CCCN13 (stereo unspecified)
2. COC(=O)c1ccc(NC2=C(Cl)C(=O)c3nc(C)ccc3C2=O)cc1
3. CC(C)(C)Nc1nc2c(OCCc3ccccc3)cccn2c1-c1ccc([N+](=O)[O-])cc1
4. C[C@H]1OCC2(CCN(c3cnc(C(=O)Nc4cc(F)cc5cccnc45)cn3)CC2)[C@H]1N

Key:
1: 93.3; 2: 31.2; 3: 15.2; 4: 35.3

Batch request: growth for each of the following compounds.
1. CNC(=O)Nc1ccc(Nc2cc(-c3ccc(-n4cccn4)cc3)[nH]n2)c(C)c1
2. CNC(=O)c1cc(-c2ccc(NC(=S)Nc3cccc(C(F)(F)F)c3)cc2)nc2cccnc12
3. O=C(CN1CCN(c2cc(=O)[nH]c3ccc(F)cc23)CC1)N(c1ccccc1)c1ccccc1

Key:
104
102
97.4

---

Test system: CAKI-1 renal
Protocol description: NCI-60 one-dose screen, 48 h (100 = growth as untreated, 0 = no growth, -100 = all killed)
Condition context: 10 µM unless noted
About 83,000 compounds went through this panel and 20% of them were active in at least one assay; those are over-represented in the sample as a whole.
Endpoint label: growth (%)
One number for each entry, in %.

Would you please look over these solved cases?
{"columns": ["Compound", "growth (%)"],
 "data": [
  ["CNC(=O)c1cc(N2CCc3cc(NC(=O)Nc4ccc(N5CCOCC5)c(C(F)(F)F)c4)ccc32)ccn1", 44.3],
  ["O=C(Nc1cccc(C(F)(F)F)c1)N1CCN(c2cc(-c3cn(-c4ccccc4)nc3-c3cccc(O)c3)ccn2)CC1", 51.8],
  ["C#Cc1nc(/C=C/CCCCCCC(=O)NO)cs1", -11.4],
  ["C#CCOc1ccccc1/C=N/Nc1nc(-c2ccc(Cl)cc2)cs1", 92]
]}

Hi, could you look up growth for each item in my list?
1. NC(=O)n1c(=O)n(-c2cccc(C(F)(F)F)c2)c(=O)c2cc(-c3ccc(F)cc3F)ccc21
2. CCNC(=O)Oc1ccc(/C(=C(/C)c2ccc(OC)cc2)c2ccc(OCCN3CCCCCC3)cc2)cc1
3. O=C(O)c1ccc(-n2c(=O)n(-c3cccc(C(F)(F)F)c3)c(=O)c3cc(-c4ccc(F)cc4F)ccc32)cc1
4. Cc1ncn(-c2ccc(/C=N/Nc3ccnc4cc(Cl)ccc34)cc2)c1C

Key:
1. -21.6
2. 14.5
3. -6.76
4. -48.9

Value sought for every listed compound: growth.
1. O=C(NNc1nc2cc(F)cc(F)c2n2cccc12)c1cccnn1
2. COc1ccccc1/C=C1\Oc2ccc(O)c(O)c2C1=O
3. C[C@]12CC[C@H]3[C@@H](CC=C4C[C@@H](O)CC[C@@]43C)[C@@H]1CC[C@@H]2[C@](C)(O)CCc1cccnc1

Key:
1. 12.4
2. 78.4
3. 69.1

Give one value of growth per listed compound.
1. COc1ccc(/C=N/NC(=O)c2c(N)nn(C)c2Nc2ccccc2)cc1
2. COc1ccc([C@H]2C(=O)N(c3cc(OC)c(OC)c(OC)c3)[C@@H]2c2ccc(OC)c(O)c2)cc1
3. Brc1cccc(-c2cc(-c3cnc4c(c3)OCCO4)n[nH]2)c1
4. COc1ccc(-c2cnc(NC(=O)CCCCCCNC(=O)C(O)(O)C(F)(F)F)s2)cc1

Key:
1. 39.8
2. 24.5
3. 51.8
4. -39.9

---

System: HT29 colon
Protocol description: NCI-60 one-dose screen, 48 h (100 = growth as untreated, 0 = no growth, -100 = all killed)
Condition context: 10 µM unless noted
The panel holds about 83,000 compounds, 20% with a hit somewhere; the sample as a whole holds those more often.
Endpoint label: growth (%)
Answers are plain numbers, in %.

Worked examples follow.
{"columns": ["Entry smiles", "Val"],
 "data": [
  ["Fc1ccc2nc(-c3cnn4cccnc34)sc2c1", 97.9],
  ["COc1cc2cc(Oc3ccc(NC(=O)Nc4ccc(F)c(C(F)(F)F)c4)cc3)c(C)nc2cc1OCCN(C)C", 66.5],
  ["O=C(Nc1cccc(C(F)(F)F)c1)N1CCN(c2cc(-c3cn(-c4ccccc4)nc3-c3cccc(O)c3)ccn2)CC1", 24.5]
]}

For every record below, what is its growth?
1. NCCNC(=O)c1cccc(COc2ccccc2NC(=O)c2cc(Cl)c(Cl)[nH]2)c1
2. C#C[C@]1(O)CC[C@H]2[C@@H]3CC=C4c5sc(NCc6ccccc6)nc5CC[C@]4(C)[C@H]3CC[C@@]21C
3. O=c1c2cc(-c3ccc(F)cc3F)ccc2n(O)c(=O)n1-c1cccc(C(F)(F)F)c1
4. Cc1ccc(/C(N)=N/C(N)=N/c2nc3ccccc3s2)cc1
5. COc1ccccc1/C=C/C(=O)c1nnn(-c2ccc(F)cc2)c1C
6. N#Cc1cnc2ccc(-c3cnc4n[nH]nc4c3)cc2c1N1CCc2cc(F)c(Cl)cc21
7. NC(=O)c1c(NC(=O)c2ccc(C(F)(F)F)cc2)sc2c1CCC(=O)C2
8. CCCCc1nc2c(N)nc3ccccc3c2n1Cc1cccc(CN)c1

Key:
1. 109
2. -7.33
3. 62.9
4. 110
5. 4.8
6. 28.1
7. 0.0943
8. 17.4

Record growth per entry; entries follow.
1. Cc1ccc(OCc2occc2C(=O)N2CCOCC2)cc1
2. COc1ccc(-c2nc(C#N)c(N3CCC(S(=O)(=O)N4CCOCC4)CC3)o2)cc1
3. CN1CCN(Cc2ccc(NC(=O)c3cncc(C#Cc4cnc5ccc(O[C@@H]6CCOC6)nn45)c3)cc2C(F)(F)F)CC1
4. CCc1cc2c(cc1Cl)nc1c(=O)[nH]c(=O)nc-1n2CCOCC(C)C
5. CC(=O)/C(N=Nc1ccc2oc(=O)ccc2c1)=C(\C)O

Key:
108
101
-54.6
24.3
24.4

Every entry's value here was drawn from PubChem BioAssay (NCI).
